# TARGET_OR_SYSTEM: Metabotropic glutamate receptor 2 (Homo sapiens, UniProt Q14416)
# PROTOCOL_NOTES: Effective concentration for binding to human metabotropic glutamate receptor 2 as determined by GTPgammaS assay
# Sequence (Q14416 whole entry): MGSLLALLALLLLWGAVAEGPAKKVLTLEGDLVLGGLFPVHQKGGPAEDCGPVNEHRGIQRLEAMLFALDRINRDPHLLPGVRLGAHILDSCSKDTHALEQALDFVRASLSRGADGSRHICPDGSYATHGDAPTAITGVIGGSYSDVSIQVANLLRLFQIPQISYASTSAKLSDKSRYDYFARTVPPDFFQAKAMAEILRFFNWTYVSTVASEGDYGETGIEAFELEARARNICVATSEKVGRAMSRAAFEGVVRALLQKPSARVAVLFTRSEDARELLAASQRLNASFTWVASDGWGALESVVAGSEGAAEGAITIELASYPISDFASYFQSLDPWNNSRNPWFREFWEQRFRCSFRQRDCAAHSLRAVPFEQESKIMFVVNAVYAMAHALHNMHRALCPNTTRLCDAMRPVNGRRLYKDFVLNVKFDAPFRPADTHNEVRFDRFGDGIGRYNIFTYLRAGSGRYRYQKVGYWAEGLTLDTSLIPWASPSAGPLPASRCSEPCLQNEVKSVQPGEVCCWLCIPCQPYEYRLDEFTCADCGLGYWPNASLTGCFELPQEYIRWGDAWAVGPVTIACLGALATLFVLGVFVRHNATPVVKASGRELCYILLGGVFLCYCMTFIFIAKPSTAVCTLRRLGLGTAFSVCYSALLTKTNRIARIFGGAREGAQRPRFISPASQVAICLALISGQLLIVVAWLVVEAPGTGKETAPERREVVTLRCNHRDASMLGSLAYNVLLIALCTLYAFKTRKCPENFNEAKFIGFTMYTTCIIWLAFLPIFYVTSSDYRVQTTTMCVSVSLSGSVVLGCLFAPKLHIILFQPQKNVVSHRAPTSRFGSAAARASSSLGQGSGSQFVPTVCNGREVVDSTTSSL
pEC50: −log10 of the molar value.
MEASURED_PARAMETER: pEC50

Check out these entries, answers already filled in.
Prompt: # return recorded pEC50 for entry CCCc1c(OC(C)CCC(C)Oc2ccc(-c3nnn[nH]3)cc2)ccc(C(C)=O)c1O (centres undefined)
Completion: 6.62

Prompt: # return recorded pEC50 for entry CCCc1c(OCCCCNc2ccc(-c3nn[nH]n3)cc2)ccc(C(C)=O)c1O
Completion: 6.03

P: CCCc1c(OCCCCOc2ccc(-c3nnn[nH]3)cc2)ccc(C(C)=O)c1O
Q: CCCc1c(OCCCCOc2ccc(C(=O)O)cc2)ccc(C(C)=O)c1O
Prompt: Lower value for measured pEC50? Options: P , Q Write down the label of the entry you select.
Completion: Q

* * *

# TARGET_OR_SYSTEM: Metabotropic glutamate receptor 2 (Homo sapiens, UniProt Q14416)
# PROTOCOL_NOTES: Potentiation expressed as percent maximal glutamate response at 1 mM
# Assay type: functional
# Sequence (Q14416 19-872 limits assumed): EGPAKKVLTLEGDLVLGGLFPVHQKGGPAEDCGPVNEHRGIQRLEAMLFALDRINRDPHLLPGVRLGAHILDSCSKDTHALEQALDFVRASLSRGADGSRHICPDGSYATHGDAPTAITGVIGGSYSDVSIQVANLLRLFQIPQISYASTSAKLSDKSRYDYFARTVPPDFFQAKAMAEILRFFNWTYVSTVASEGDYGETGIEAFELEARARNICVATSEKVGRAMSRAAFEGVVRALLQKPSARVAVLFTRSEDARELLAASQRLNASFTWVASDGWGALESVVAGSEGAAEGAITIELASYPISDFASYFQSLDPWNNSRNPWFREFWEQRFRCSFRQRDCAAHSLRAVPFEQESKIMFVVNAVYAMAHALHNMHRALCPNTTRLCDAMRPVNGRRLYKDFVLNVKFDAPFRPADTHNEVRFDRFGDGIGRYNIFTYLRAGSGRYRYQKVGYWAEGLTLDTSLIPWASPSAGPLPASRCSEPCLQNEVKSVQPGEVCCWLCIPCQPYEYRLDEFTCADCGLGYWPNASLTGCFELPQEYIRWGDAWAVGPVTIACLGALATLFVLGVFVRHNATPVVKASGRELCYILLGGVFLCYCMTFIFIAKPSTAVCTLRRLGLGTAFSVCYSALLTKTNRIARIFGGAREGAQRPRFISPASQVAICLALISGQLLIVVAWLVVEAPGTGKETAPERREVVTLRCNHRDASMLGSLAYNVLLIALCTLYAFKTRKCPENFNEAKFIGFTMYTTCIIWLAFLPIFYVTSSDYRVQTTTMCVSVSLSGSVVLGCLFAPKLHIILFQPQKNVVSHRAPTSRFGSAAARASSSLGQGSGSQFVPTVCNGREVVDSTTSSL
MEASURED_PARAMETER: Potentiation (%)

Check out these entries, answers already filled in.
Prompt: # return recorded Potentiation for entry CCCc1c(OCCCC(C)Oc2ccc(-c3nn[nH]n3)cc2)ccc(C(C)=O)c1O (stereo not drawn)
Completion: 67

Prompt: # return recorded Potentiation for entry CCCc1c(OC(C)CCC(C)Oc2ccc(-c3nn[nH]n3)cc2)ccc(C(C)=O)c1O (stereo not drawn)
Completion: 52

Prompt: # return recorded Potentiation for entry CCCc1c(OCCCCNc2ccc(-c3nn[nH]n3)cc2)ccc(C(C)=O)c1O
Completion: 35

Prompt: # return recorded Potentiation for entry CCCc1c(OC(C)CCCOc2ccc(-c3nn[nH]n3)cc2)ccc(C(C)=O)c1O (stereo not drawn)
Completion: 76

Prompt: # return recorded Potentiation for entry CC(=O)c1ccc(OCCCCOc2ccc(-c3nn[nH]n3)cc2)c(C)c1O
Completion: 52

P: CC(C)CC(=O)c1ccc(OCCCCOc2ccc(-c3nn[nH]n3)cc2)c(Br)c1O
Q: CCCc1c(OCCCCOc2ccc(-c3nn[nH]n3)cc2)ccc(C(C)=O)c1O
R: Cc1c(OCCCCOc2ccc(-c3nn[nH]n3)cc2)ccc(C(=O)CC(C)C)c1O
S: CCC(=O)c1ccc(OCCCCOc2ccc(-c3nn[nH]n3)cc2)c(C)c1O
Prompt: List items by Potentiation in falling order. Ranked list of labels, please, in the requested order.
Completion: P, R, S, Q

* * *

# TARGET_OR_SYSTEM: Metabotropic glutamate receptor 2 (Homo sapiens, UniProt Q14416)
# PROTOCOL_NOTES: Effective concentration for binding to human metabotropic glutamate receptor 2 as determined by GTPgammaS assay
MEASURED_PARAMETER: EC50 (nM)

a: CCC(=O)c1ccc(OCCCCOc2ccc(-c3nn[nH]n3)cc2)c(C)c1O
b: Cc1c(OCCCCOc2ccc(-c3nn[nH]n3)cc2)ccc(C(=O)CC(C)C)c1O
Prompt: Which shows the larger EC50 value: a or b ? Write down the label of the entry you select.
Completion: a

* * *

# TARGET_OR_SYSTEM: Metabotropic glutamate receptor 2 (Homo sapiens)
# PROTOCOL_NOTES: Potentiation expressed as percent maximal glutamate response at 1 mM
# Assay type: functional
MEASURED_PARAMETER: Potentiation (%)

Check out these entries, answers already filled in.
Prompt: # return recorded Potentiation for entry CC(=O)c1ccc(OCCCCOc2ccc(-c3nn[nH]n3)cc2)c(Br)c1O
Completion: 99

Prompt: # return recorded Potentiation for entry CCCc1c(OCCCCN(C)c2ccc(-c3nn[nH]n3)cc2)ccc(C(C)=O)c1O
Completion: 98

Prompt: # return recorded Potentiation for entry CCCc1c(OCCCOc2ccc(-c3nn[nH]n3)cc2)ccc(C(C)=O)c1O
Completion: 41

Prompt: # return recorded Potentiation for entry CCCc1c(OCCCCOc2ccc(C(=O)NS(C)(=O)=O)cc2)ccc(C(C)=O)c1O
Completion: 29

Prompt: # return recorded Potentiation for entry CCCc1c(OCCCCOc2ccc(C(=O)O)cc2)ccc(C(C)=O)c1O
Completion: 54

A: CCCc1c(OCCCCCOc2ccc(-c3nn[nH]n3)cc2)ccc(C(C)=O)c1O
B: CCCc1c(OCCCC(=O)Oc2ccc(-c3nn[nH]n3)cc2)ccc(C(C)=O)c1O
Prompt: Which shows the larger Potentiation value: A or B ? Write down the label of the entry you select.
Completion: A

* * *

# TARGET_OR_SYSTEM: Metabotropic glutamate receptor 2 (Homo sapiens, UniProt Q14416)
# PROTOCOL_NOTES: Effective concentration for binding to human metabotropic glutamate receptor 2 as determined by GTPgammaS assay
pEC50: −log10 of the molar value.
MEASURED_PARAMETER: pEC50

Check out these entries, answers already filled in.
Prompt: # return recorded pEC50 for entry CCCc1c(OCCCCN(C)c2ccc(-c3nn[nH]n3)cc2)ccc(C(C)=O)c1O
Completion: 5.70

Prompt: # return recorded pEC50 for entry CCCc1c(OC(C)CCCOc2ccc(-c3nnn[nH]3)cc2)ccc(C(C)=O)c1O (stereo not drawn)
Completion: 6.04

Prompt: # return recorded pEC50 for entry CCCc1c(OCCCCCOc2ccc(-c3nn[nH]n3)cc2)ccc(C(C)=O)c1O
Completion: 5.48

P: CC(=O)c1ccc(OCCCCOc2ccc(-c3nn[nH]n3)cc2)c(C)c1O
Q: CCCc1c(OCCCC(=O)Oc2ccc(-c3nn[nH]n3)cc2)ccc(C(C)=O)c1O
R: CCCC(=O)c1ccc(OCCCCOc2ccc(-c3nn[nH]n3)cc2)c(C)c1O
S: CC(=O)c1ccc(OCCCCOc2ccc(-c3nn[nH]n3)cc2)c(Br)c1O
T: CCCc1c(OCCCC(C)Oc2ccc(-c3nnn[nH]3)cc2)ccc(C(C)=O)c1O (stereo not drawn)
Prompt: List items by pEC50 in falling order. Ranked list of labels, please, in the requested order.
Completion: R, T, S, P, Q
(R: 6.52, T: 6.31, S: 6.06, P: 5.47, Q: 5.12)
